Hey, just so you know, these numbers are from patent US6583177B2.

target: LTB4 receptor (Homo sapiens, UniProt Q15722); construct: The reaction was started by addition of a thoroughly mixed PMN cell suspension (1.6×10^6 cells); endogenous in cells; host or cells: human polymorphonuclear leukocytes (PMN), whole-cell suspension; assay: Binding inhibition against 3H-LTB4 on the human polymorphonuclear leukocyte (PMN); conditions: percentage of inhibition of specific 3H-LTB4 (4nM) binding to human PMN, 0° C. for 20 min; formula (IB) compounds, Table 18
Sequence (Q15722 whole entry): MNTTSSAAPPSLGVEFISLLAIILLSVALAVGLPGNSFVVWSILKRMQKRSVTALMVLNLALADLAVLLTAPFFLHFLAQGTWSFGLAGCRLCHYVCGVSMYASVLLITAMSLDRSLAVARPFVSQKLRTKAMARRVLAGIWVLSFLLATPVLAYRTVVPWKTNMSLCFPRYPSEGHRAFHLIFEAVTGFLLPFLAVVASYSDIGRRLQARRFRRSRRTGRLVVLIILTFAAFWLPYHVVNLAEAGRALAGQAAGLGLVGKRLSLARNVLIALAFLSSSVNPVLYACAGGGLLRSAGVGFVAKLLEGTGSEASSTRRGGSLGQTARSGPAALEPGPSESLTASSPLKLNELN
Label 1 (yes) when inhibition is at or above 90%; otherwise label 0 (no).

compound=C=CCN(CC(=O)OCC)C(=O)c1ccc(/C=C(\C)C(=O)Oc2ccc(C(=N)N)cc2)cc1 label_value="0 (no)"
compound="CCOC(=O)[C@H](COC(=O)c1ccccc1)NC(=O)/C(C)=C/c1ccc(C(=O)Oc2ccc(C(=N)N)cc2)cc1 [Example 2(e)]" label_value="1 (yes)"
compound=CCOC(=O)CC[C@H](NC(=O)c1ccc(/C(C)=C/C(=O)Oc2ccc(C(=N)N)cc2)cc1)C(=O)OCC label_value="1 (yes)"
compound="CCOP(=O)(CCCc1ccccc1)Cc1ccc(C(=O)Oc2ccc(C(=N)N)cc2)cc1 (stereo not shown)" label_value="0 (no)"
compound=CCOC(=O)CN(C(=O)c1ccc(C(=O)Oc2ccc3c(c2)CCC(C(=N)N)=C3)cc1)c1ccccc1 label_value="1 (yes)"
compound=C=CCN(CC(=O)OCC)C(=O)/C=C/C=C/c1ccc(C(=O)Oc2ccc(C(=N)N)cc2)cc1 label_value="0 (no)"
compound=CCOC(=O)CN(C(=O)c1ccc(C(=O)Oc2ccc(/C=C/C(=N)N)cc2)cc1)c1ccccc1 label_value="1 (yes)"

----------
Recorded IC50 values (PLA2 (derived from hog pancreas) (Sus scrofa)) are given below.
Quantity: IC50

compound="C=CCN(CC(=O)OCC)C(=O)C(=Cc1ccc(C(=O)Oc2ccc(C(=N)N)cc2)cc1)C(=O)OCC [Example 2(s)]" value_measured="44 µM"
compound=CCOC(=O)CC[C@H](NC(=O)c1ccc(/C=C/C(=O)Oc2ccc(C(=N)N)cc2)cc1)C(=O)OCC value_measured="70 µM"
compound=CCOC(=O)CC[C@H](NC(=O)c1ccc(/C=C(\C)C(=O)Oc2ccc(C(=N)N)cc2)cc1)C(=O)OCC value_measured="53 µM"
compound=CCOC(=O)CC[C@H](NC(=O)c1ccc(/C(C)=C/C(=O)Oc2ccc(C(=N)N)cc2)cc1)C(=O)OCC value_measured="29 µM"
